Entry source: PubChem BioAssay (NCI)

System: OVCAR-4 ovarian
PROCEDURE_DETAILS: NCI tumour cell line growth inhibition, 48 h
Entries annotated with measured TGI
Return type: number; implicit unit µM.

{"COMPOUND": "O=C(COc1ccc(/C=C2\\Oc3ccc4ccccc4c3C2=O)cc1)c1ccc([N+](=O)[O-])cc1", "TGI (µM)": 8.87}

Looking for the measured TGI of C[C@H]1CCC/C=C/C2CC(OC(=O)CN(C)C)CC2C(OC(=O)CN(C)C)/C=C/C(=O)O1 (stereo not given in full) , can you help?
34.2

----------
Entries annotated with measured TGI
System: HT29 colon
PROCEDURE_DETAILS: NCI tumour cell line growth inhibition, 48 h
Return type: number; implicit unit µM.

{"MOLECULE": "O=CC(OC(=O)c1ccccc1)C(OC(=O)c1ccccc1)C(COC(c1ccccc1)(c1ccccc1)c1ccccc1)OC(=O)c1ccccc1 (centres undefined)", "TGI, µM": 26.3}

Then there is this molecule:
Looking for the measured TGI of "Cc1ccc(Nc2c3c(c(C#N)c4nc5ccccc5n24)CCCC3)cc1" , can you help?
37.2

----------
Test system: MALME-3M melanoma
PROCEDURE_DETAILS: NCI tumour cell line growth inhibition, 48 h
RECORDED_METRIC: TGI (µM)
Return type: number; implicit unit µM.

Worked set:
{"MOL_SMILES": "COc1ccc(C=Nc2ccc(-c3nc4ccccc4s3)cc2)cc1OC", "TGI (µM)": 89.2}
{"MOL_SMILES": "c1ccc(-c2cnc(SC(c3ccccc3)c3ccccc3)[nH]2)cc1", "TGI (µM)": 73.9}
{"MOL_SMILES": "CC1(C)OB(c2ccc(N(CCOS(C)(=O)=O)CCOS(C)(=O)=O)cc2)OC1(C)C", "TGI (µM)": 46.1}

Then there is this molecule:
Looking for the measured TGI of "Cc1cc2c(cc1Cl)SC(N(c1ccccc1Cl)S(=O)(=O)c1ccc(Br)s1)=NS2(=O)=O" , can you help?
39.4

----------
Entries annotated with measured TGI
System: M14 melanoma
PROCEDURE_DETAILS: NCI tumour cell line growth inhibition, 48 h

Worked set:
{"COMPOUND": "Cc1ccsc1/C=N/NC1=NCCN1", "SYSTEM_NAME": "M14 melanoma", "TGI": "> 100 µM"}
{"COMPOUND": "O=C1CC(c2ccc(Cl)cc2)C2(C(=O)NC(=S)NC2=O)C(c2ccc(Cl)cc2)C1 (stereo not given)", "SYSTEM_NAME": "M14 melanoma", "TGI": "44.7 µM"}
{"COMPOUND": "CCN(C(=O)N1CCN(c2cc3c(cc2F)c(=O)c(C(=O)O)cn3C2CC2)CC1)c1nc(-c2ccccc2)cs1", "SYSTEM_NAME": "M14 melanoma", "TGI": "> 100 µM"}
{"COMPOUND": "CC12NC(=C(C#N)C#N)C(C#N)=C3NC(N)=C(C#N)C(=C31)Oc1ccccc12 (stereo not given)", "SYSTEM_NAME": "M14 melanoma", "TGI": "> 100 µM"}

Then there is this compound:
Looking for the measured TGI of "N#CCCN(CCC#N)c1ccc(/C=C(/NC(=O)c2cc([N+](=O)[O-])ccc2Cl)C(=O)N=[N+]=[N-])cc1" , can you help?
> 100 µM

----------
Tested on: OVCAR-8 ovarian
PROCEDURE_DETAILS: NCI tumour cell line growth inhibition, 48 h
Entries annotated with measured log10 TGI
Transform log10 | Measure TGI | Unit µM

Worked set:
{"MOLECULE": "OC1(c2ccccc2)CC2CCC(C1)N2CCCC(O)(c1ccccc1)c1ccccc1 (stereo not given)", "RECORDED_METRIC": "log10 TGI", "MEASURED_RESULT": 1.56}
{"MOLECULE": "CC/C=C\\C[C@H]1C/C=C2/C(=O)C=C[C@H]2C/C=C\\CCCC(=O)O1", "RECORDED_METRIC": "log10 TGI", "MEASURED_RESULT": 1.07}
{"MOLECULE": "Clc1ccc(-c2cc(-c3ccccc3)nc(N3CCN(CCCNc4ccnc5cc(Cl)ccc45)CC3)n2)cc1", "RECORDED_METRIC": "log10 TGI", "MEASURED_RESULT": 0.47}
{"MOLECULE": "O=c1oc2cc(O)ccc2c2[nH]c3cc(O)ccc3c12", "RECORDED_METRIC": "log10 TGI", "MEASURED_RESULT": 1.90}
{"MOLECULE": "O=CC(OC(=O)c1ccccc1)C(OC(=O)c1ccccc1)C(COC(c1ccccc1)(c1ccccc1)c1ccccc1)OC(=O)c1ccccc1 (stereo not given)", "RECORDED_METRIC": "log10 TGI", "MEASURED_RESULT": 1.73}

Looking for the measured log10 TGI of "Oc1ccc2ccccc2c1CCc1c(O)ccc2ccccc12" , can you help?
1.44

Looking for the measured log10 TGI of Cc1cccc(C(C)(C)C)c1NC(=O)C(C#N)C1=C(Cl)C(=O)c2ccccc2C1=O (stereo not given) , can you help?
1.57

Looking for the measured log10 TGI of "CC[C@H](C)[C@H](NC(=O)N(CCC#N)CCN(CCN(C(=O)N[C@@H](Cc1ccccc1)C(=O)OC)c1ccccc1)C(=O)N[C@H](C(=O)OC)C(C)C)C(=O)OC" , can you help?
1.82

----------
Entries annotated with measured TGI
System: EKVX NSCLC
PROCEDURE_DETAILS: NCI tumour cell line growth inhibition, 48 h
Return type: number; implicit unit µM.

Worked set:
{"COMPOUND": "CCC(=O)OC1CCn2c1nc1c2C(=O)C(C)=C(NC(C)=O)C1=O (stereo unspecified)", "RECORDED_METRIC": "TGI", "READOUT_UNIT": "µM", "MEASURED_RESULT": 3.53}
{"COMPOUND": "CC/C=C\\C[C@H]1C/C=C2/C(=O)C=C[C@H]2C/C=C\\CCCC(=O)O1", "RECORDED_METRIC": "TGI", "READOUT_UNIT": "µM", "MEASURED_RESULT": 15.7}

Then there is this compound:
Looking for the measured TGI of "COc1ccc2[nH]c(Cl)c(/C=C3/C(=O)Nc4ccccc43)c2c1" , can you help?
3.96

----------
Test system: KM12 colon
PROCEDURE_DETAILS: NCI tumour cell line growth inhibition, 48 h
RECORDED_METRIC: TGI

Worked set:
{"MOL_SMILES": "CC[C@H](C)[C@H](NC(=O)N(CCC#N)CCN(CCN(C(=O)N[C@@H](Cc1ccccc1)C(=O)OC)c1ccccc1)C(=O)N[C@H](C(=O)OC)C(C)C)C(=O)OC", "TGI": "39.7 µM"}
{"MOL_SMILES": "CCn1cnc(C[C@H](NC(=O)[C@H](CCCCNC(=O)Nc2cc(C(F)(F)F)cc(C(F)(F)F)c2)NC(=O)Nc2cc(C(F)(F)F)cc(C(F)(F)F)c2)C(=O)OC)c1", "TGI": "> 10 µM"}

Then there is this compound:
Request body: readout TGI, system KM12 colon, query "COC(=O)[C@H](CNC(=O)/C=C/c1ccc(OC(C)=O)c(OC(C)=O)c1)NC(=O)/C=C/c1ccc(OC(C)=O)c(OC(C)=O)c1" . Return the value.
> 100 µM

----------
Entries annotated with measured TGI
System: COLO 205 colon
PROCEDURE_DETAILS: NCI tumour cell line growth inhibition, 48 h
Return type: number; implicit unit µM.

{"MOLECULE": "O=[N+]([O-])c1cc(C2(N3CCCCC3)CCCCC2)sc1Br", "SYSTEM_NAME": "COLO 205 colon", "TGI [µM]": 17.7}
{"MOLECULE": "COc1ccc2c(c1)CC[C@@H]1[C@@H]2CC[C@]2(C)/C(=N/OCCN3CCCC3)CC[C@@H]12", "SYSTEM_NAME": "COLO 205 colon", "TGI [µM]": 3.06}
{"MOLECULE": "O=CC(OC(=O)c1ccccc1)C(OC(=O)c1ccccc1)C(COC(c1ccccc1)(c1ccccc1)c1ccccc1)OC(=O)c1ccccc1 (centres undefined)", "SYSTEM_NAME": "COLO 205 colon", "TGI [µM]": 25.4}

Looking for the measured TGI of "CC/C=C\C[C@H]1C/C=C2/C(=O)C=C[C@H]2C/C=C\CCCC(=O)O1" , can you help?
6.7

----------
System: MDA-N
PROCEDURE_DETAILS: NCI tumour cell line growth inhibition, 48 h
Entries annotated with measured TGI

Worked set:
{"COMPOUND": "CC[C@H](C)[C@H](NC(=O)N(CCC#N)CCN(CCN(C(=O)N[C@@H](Cc1ccccc1)C(=O)OC)c1ccccc1)C(=O)N[C@H](C(=O)OC)C(C)C)C(=O)OC", "TGI": "31.7 µM"}
{"COMPOUND": "CC(C)C[S+]1C2=C([O-])CC(C)(C)CC2=Nc2ccccc21 (centres undefined)", "TGI": "> 100 µM"}
{"COMPOUND": "O=C(Nc1ccccc1)c1cc2ccccc2c(N=Nc2cccc([N+](=O)[O-])c2)c1O", "TGI": "> 100 µM"}

Looking for the measured TGI of "O=C(O)c1cc2ccccc2c(Cc2c(O)c(C(=O)O)cc3ccccc23)c1O" , can you help?
> 100 µM
